IC50, TZM-bl pseudovirus neutralization values for the binders below.
# TARGET_OR_SYSTEM: HIV-1 JR-CSF Env (wild-type) (HIV-1) (UniProt P20871)
# METHOD: cell-based or functional assay

BINDER	UNIT_LABEL	IC50, TZM-bl pseudovirus neutralization
1456_A12 (PG16) (TCN-117) (antibody, V domains shown) VH: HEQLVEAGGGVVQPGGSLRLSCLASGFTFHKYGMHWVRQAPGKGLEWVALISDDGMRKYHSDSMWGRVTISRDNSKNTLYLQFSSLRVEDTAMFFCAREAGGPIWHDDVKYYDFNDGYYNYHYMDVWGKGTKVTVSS VL: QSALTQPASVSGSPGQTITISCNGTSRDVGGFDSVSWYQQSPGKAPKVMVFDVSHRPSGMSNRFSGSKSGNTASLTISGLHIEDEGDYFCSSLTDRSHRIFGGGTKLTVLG	ng/mL	1
1469_M23 (PG16) (TCN-118) (antibody, V domains shown) VH: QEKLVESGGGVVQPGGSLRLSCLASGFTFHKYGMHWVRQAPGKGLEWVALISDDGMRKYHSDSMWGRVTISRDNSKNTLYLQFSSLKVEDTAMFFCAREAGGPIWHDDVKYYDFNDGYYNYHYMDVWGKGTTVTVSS VL: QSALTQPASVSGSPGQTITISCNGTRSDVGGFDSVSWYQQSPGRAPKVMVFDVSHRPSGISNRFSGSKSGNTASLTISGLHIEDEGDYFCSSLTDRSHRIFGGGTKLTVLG	ng/mL	2
1489_I13 (PG16) (TCN-120) (antibody, V domains shown) VH: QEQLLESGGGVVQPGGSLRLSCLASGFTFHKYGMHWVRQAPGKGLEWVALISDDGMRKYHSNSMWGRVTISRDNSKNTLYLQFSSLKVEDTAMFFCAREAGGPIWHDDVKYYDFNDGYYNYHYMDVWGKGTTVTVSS VL: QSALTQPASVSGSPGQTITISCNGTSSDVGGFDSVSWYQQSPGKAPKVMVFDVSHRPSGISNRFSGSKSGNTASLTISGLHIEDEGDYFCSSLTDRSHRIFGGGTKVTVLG	ng/mL	2
1503_H05 (PG16) (TCN-119) (antibody, V domains shown) VH: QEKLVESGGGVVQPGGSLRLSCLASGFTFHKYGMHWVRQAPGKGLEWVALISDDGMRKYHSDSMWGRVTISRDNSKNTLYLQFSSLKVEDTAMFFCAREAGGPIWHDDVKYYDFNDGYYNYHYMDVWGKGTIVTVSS VL: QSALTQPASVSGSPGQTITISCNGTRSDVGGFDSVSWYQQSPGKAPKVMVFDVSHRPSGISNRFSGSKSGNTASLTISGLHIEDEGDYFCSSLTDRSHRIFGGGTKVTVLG	ng/mL	1
